System: Staphylococcus aureus
procedure_text: Antibacterial activity against Staphylococcus aureus ATCC 25923 after 24 hrs by broth microdilution method
Assay type: functional
run_conditions: ATCC 25923, 24 h
observable: MIC (mg/L)
Answers are plain numbers, in mg/L.

Here are 7 molecules together with their reported answers.
smiles_notation	units_text	MIC
CO[C@H]1/C=C/O[C@@]2(C)Oc3c(C)c(O)c4c(O)c(c(/C=N/N5CCN(C)CC5)c(O)c4c3C2=O)NC(=O)/C(C)=C\C=C\[C@H](C)[C@H](O)[C@@H](C)[C@@H](O)[C@@H](C)[C@H](OC(C)=O)[C@@H]1C	mg/L	0.015
Cc1nn(C)c([N-]C(=O)Cc2ccc(Cl)cc2)c1[N+]#N	mg/L	25
Cc1nn(C)c([N-]C(=O)Nc2ccc(Cl)c(Cl)c2)c1[N+]#N	mg/L	6.2
Cc1nn(C)c([N-]C(=O)Nc2ccc([N+](=O)[O-])cc2)c1[N+]#N	mg/L	6.2
Cc1nn(C)c([N-]C(=O)Nc2ccccc2)c1[N+]#N	mg/L	12.5
COc1ccc(CC(=O)[N-]c2c([N+]#N)c(C)nn2C)cc1	mg/L	6.2
Cc1nn(C)c([N-]C(=O)Cc2ccccc2)c1[N+]#N	mg/L	6.2

// switching to the query molecule
stdin: Enter reported MIC observed with Staphylococcus aureus for Cc1nn(C)c([N-]C(=O)Nc2ccc(Cl)cc2)c1[N+]#N
stdout: 6.2
